Hey, just so you know, these numbers are from the RNAGym collection of RNA variant scans (doi:10.1038/nmeth.2970).

B1: NELF-E aptamer (parent)
chain: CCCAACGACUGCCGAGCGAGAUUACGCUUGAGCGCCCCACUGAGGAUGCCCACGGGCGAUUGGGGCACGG

- Variants of: B1
- assaySummary: HiTS-RAP
- studyConditions: with NELF-E (Drosophila)
measuredEndpoint: log10 Kd (log10 of the value in nM)
Response schema: value (number) is log10 of Kd in units of nM.

Just so you know, measured log10 Kd for C6A A8U came out at 0.85

Just so you know, measured log10 Kd for C6U U29G came out at 0.76

Just so you know, measured log10 Kd for A8U G55U came out at 0.88

Just so you know, measured log10 Kd for C9G A59G came out at 1.81

Just so you know, measured log10 Kd for C13U G34A came out at 0.84

Just so you know, measured log10 Kd for G7U A43U came out at 1.93
